Molecular target: T1, human Nectin-4 extracellular antigen hNectin-4-His (human, UniProt Q96NY8 32-349)
T1 construct: C-terminal 8xHis tag included
T1 sequence: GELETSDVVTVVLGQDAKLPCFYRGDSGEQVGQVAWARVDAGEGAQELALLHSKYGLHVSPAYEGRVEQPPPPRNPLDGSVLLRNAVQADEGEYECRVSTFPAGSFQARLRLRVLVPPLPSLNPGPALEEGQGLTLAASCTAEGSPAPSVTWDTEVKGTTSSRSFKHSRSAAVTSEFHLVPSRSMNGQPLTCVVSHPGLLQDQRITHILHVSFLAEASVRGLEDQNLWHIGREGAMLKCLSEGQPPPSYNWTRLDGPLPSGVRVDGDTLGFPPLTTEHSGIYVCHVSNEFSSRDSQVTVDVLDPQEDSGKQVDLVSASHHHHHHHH
Experiment: ELISA, phage scFv supernatant 1:50
Observed Property: OD value (OD)
Give a bare numeral; the unit OD is implied.

[[record]]
binder = "10F4-1C3 scFv (scFv, V domains shown, phage clone supernatant) VH: EVQLVESGGGLVQPGGSLRLSCAASGYSFSDYWMSWVRQAPGKGLEWVSSIKQTGGVKHYADSVKGRFTISRDNSKNTLYLQMNSLRAEDTAVYYCAREYSDVVDYVSVRTPLDYWGQGTLVTVSS VL: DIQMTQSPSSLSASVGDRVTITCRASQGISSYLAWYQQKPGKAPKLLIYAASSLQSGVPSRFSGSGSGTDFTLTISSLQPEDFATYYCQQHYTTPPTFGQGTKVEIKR"
observed_property = "OD value"
unit_annotation = "OD"
observed_value = 1.59

[[record]]
binder = "10F4-1C10 scFv (scFv, V domains shown, phage clone supernatant) VH: EVQLVESGGGLVQPGGSLRLSCAASGYNFGSYDMSWVRQAPGKGLEWVSGIKTYGGNTHYADSVKGRFTISRDNSKNTLYLQMNSLRAEDTAVYYCAREYSDVVDYVSVRTPLDYWGQGTLVTVSS VL: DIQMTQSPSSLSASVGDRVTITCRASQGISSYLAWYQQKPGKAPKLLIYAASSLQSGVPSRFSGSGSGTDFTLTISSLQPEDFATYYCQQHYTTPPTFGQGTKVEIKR"
observed_property = "OD value"
unit_annotation = "OD"
observed_value = 1.52

[[record]]
binder = "10F4-1H7 scFv (scFv, V domains shown, phage clone supernatant) VH: EVQLVESGGGLVQPGGSLRLSCAASGYSFDTYDMSWVRQAPGKGLEWVSGIKQYKGYTSYADSVKGRFTISRDNSKNTLYLQMNSLRAEDTAVYYCAREYSDVVDYVSVRTPLDYWGQGTLVTVSS VL: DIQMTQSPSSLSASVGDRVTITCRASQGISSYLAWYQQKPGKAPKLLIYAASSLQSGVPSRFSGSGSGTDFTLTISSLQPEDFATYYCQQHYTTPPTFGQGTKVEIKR"
observed_property = "OD value"
unit_annotation = "OD"
observed_value = 1.49


Identify the reported OD value for the following entry. 1F3-1C11 scFv (scFv, V domains shown, phage clone supernatant) VH: EVQLVESGGGLVQPGGSLRLSCAASGFNFSSYGMSWVRQAPGKGLEWVSAISGSGGSTYYADSVKGRFTISRDNSKNTLYLQMNSLRAEDTAVYYCARAELLAFDVYTASDYWGQGTLVTVSS VL: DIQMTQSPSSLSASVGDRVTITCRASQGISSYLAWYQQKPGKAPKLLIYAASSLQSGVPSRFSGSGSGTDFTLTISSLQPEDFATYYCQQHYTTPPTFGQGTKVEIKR 1.63

Identify the reported OD value for the following entry. 10F4-1D3 scFv (scFv, V domains shown, phage clone supernatant) VH: EVQLVESGGGLVQPGGSLRLSCAASGFSFYDYDMSWVRQAPGKGLEWVSSIIQSGSTAFYADSVKGRFTISRDNSKNTLYLQMNSLRAEDTAVYYCAREYSDVVDYVSVRTPLDYWGQGTLVTVSS VL: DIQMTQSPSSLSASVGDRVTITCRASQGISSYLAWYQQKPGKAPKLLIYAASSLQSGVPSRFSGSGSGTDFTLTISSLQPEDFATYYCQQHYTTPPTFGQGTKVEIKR 1.52
